Below, each entry is listed alongside its reported DSF ΔTm AQ STING.
target: AQ human STING (G230A-R293Q) (Homo sapiens, UniProt Q86WV6, G230A/H232R/R293Q)
Construct: truncated human WT STING or AQ STING (amino acid residues 140-343); 8xHis (N, cleaved yes); SUMO (N, cleaved yes); made in house; host or cells: E. coli Rosetta-gami B (DE3)
Sequence (Q86WV6 140-343 G230A/H232R/R293Q): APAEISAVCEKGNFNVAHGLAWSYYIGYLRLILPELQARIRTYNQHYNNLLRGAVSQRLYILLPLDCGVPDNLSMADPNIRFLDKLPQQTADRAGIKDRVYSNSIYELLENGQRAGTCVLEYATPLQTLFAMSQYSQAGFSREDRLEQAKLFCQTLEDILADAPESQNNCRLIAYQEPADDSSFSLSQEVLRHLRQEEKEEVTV
assay-text: Differential Scanning Fluorimetry with AQ STING
Type: binding
test-conditions: thermal shift vs STING apoprotein; 150 μM CDN; truncated AQ STING (residues 140-343)
Enter your answer as a number in °C; do not include the unit.

As a guide, the following entries are already answered.
Nc1nc2c(ncn2[C@@H]2O[C@@H]3COP(=O)(O)CO[C@H]4[C@@H](F)[C@H](n5cnc6c(N)ncnc65)O[C@@H]4COP(=O)(S)O[C@@H]2[C@@H]3F)c(=O)[nH]1 (single isomer, unassigned) [Compound 11b]; 29.2
Nc1ncnc2c1ncn2[C@@H]1O[C@@H]2COP(=O)(O)O[C@@H]3[C@H](F)[C@@H](COP(=O)(O)CO[C@H]2[C@H]1F)O[C@H]3n1cnc2c(N)ncnc21; 13.3

Now let's try a different one.
State measured DSF ΔTm AQ STING of the compound Nc1nc2c(ncn2[C@@H]2O[C@@H]3COP(=O)(O)O[C@@H]4[C@H](O)[C@@H](COP(=O)(O)O[C@@H]2[C@@H]3O)O[C@H]4n2cnc3c(N)ncnc32)c(=O)[nH]1 [2′2′-cGAMP, reference compound] with AQ human STING (G230A-R293Q) (Homo sapiens, UniProt Q86WV6, G230A/H232R/R293Q).
19.4

The reported measurements were obtained from patent US12318403B2.
